- ASSAY DETAILS: Aqueous solubility of the compound
- Assay type: physicochemical
PROPERTY LABEL: solubility (µg/mL)
Kindly provide the numeric value in µg/mL only, without the unit symbol.

{"columns": ["STRUCTURE STRING", "solubility, µg/mL"],
 "data": [
  ["CCC(CC)N1CCN(C(=O)c2cc(Cn3c(=O)[nH]c(=O)c4ccccc43)ccc2F)CC1=O", 30.4]
]}

As a next step, examine the compound that follows.
// query Give the measured solubility of `CCC(CC)N1CCN(C(=O)c2cc(Cn3c(=O)[n-]c(=O)c4ccccc43)ccc2F)CC1=O.[Na+]` .
// result 223
